# Test system: MLKL phosphorylation in HT29-L23 human colorectal adenocarcinoma cells
# EXPERIMENT SUMMARY: MLKL Phosphorylation High-Content Assay
# Assay type: cell-based
# RUN PARAMETERS: Homo sapiens, x marks IC50 class 20-200 nM, read-out: pMLKL cell activity 20-200 nM
pIC50: −log10 of the molar value.
What pIC50 was measured for each of the following?

- COMPOUND: "COc1ncc(-c2ccn3nc(N)nc3c2)cc1C(=O)NCc1ccc(F)cc1OC1CCCC1 [Example 51]"
  SYSTEM UNDER TEST: "MLKL phosphorylation in HT29-L23 human colorectal adenocarcinoma cells"
  pIC50: "6.70 to 7.70"
- COMPOUND: "Cc1ncc(-c2ccn3nc(N)nc3c2)cc1C(=O)NCc1ccccc1OCC1CC1 [Example 250]"
  SYSTEM UNDER TEST: "MLKL phosphorylation in HT29-L23 human colorectal adenocarcinoma cells"
  pIC50: "6.70 to 7.70"
- COMPOUND: "[2H]C([2H])([2H])Nc1nc2cc(-c3cnc(C)c(C(=O)N[C@H](C)c4cc(OC(F)(F)F)ccc4F)c3)ccn2n1 [Example 375]"
  SYSTEM UNDER TEST: "MLKL phosphorylation in HT29-L23 human colorectal adenocarcinoma cells"
  pIC50: "6.70 to 7.70"

State recorded pIC50 for all listed compounds.
1. Cc1cnc(-c2ccn3nc(N)nc3c2)cc1C(=O)N[C@H](C)c1cc(OC(F)(F)F)ccc1F [Example 392]
2. Cc1ncc(-c2ccn3nc(N)nc3c2)cc1C(=O)NCc1cccnc1OC1CCCC1 [Example 240]
3. COc1ncc(C(=O)NCc2c(F)cccc2OCC2CCC2)cc1-c1ccn2nc(N)nc2c1 [Example 25]
4. Cc1ncc(-c2ccn3nc(N)nc3c2)cc1C(=O)NCc1cc(F)cc(F)c1OC1CC(C)OC(C)C1 (centres unmarked) [Example 315]
5. COc1nc(C)c(-c2ccn3nc(N)nc3c2)cc1C(=O)NCc1c(F)cccc1OC1CCCC1 [Example 217]

1: 6.70 to 7.70; 2: 6.70 to 7.70; 3: 6.70 to 7.70; 4: 6.70 to 7.70; 5: 6.70 to 7.70

====

What IC50 was measured for each of the following?
# SYSTEM UNDER TEST: His-GST-TVMV-hRIPK1(1-324) (Homo sapiens)
# Construct: The coding region of human RIPK1(1-324) flanked by NdeI site at 5′ end; made in house; host or cells: Spodoptera frugiperda (Sf9) insect cells, baculovirus
# Sequence (Q13546 1-324): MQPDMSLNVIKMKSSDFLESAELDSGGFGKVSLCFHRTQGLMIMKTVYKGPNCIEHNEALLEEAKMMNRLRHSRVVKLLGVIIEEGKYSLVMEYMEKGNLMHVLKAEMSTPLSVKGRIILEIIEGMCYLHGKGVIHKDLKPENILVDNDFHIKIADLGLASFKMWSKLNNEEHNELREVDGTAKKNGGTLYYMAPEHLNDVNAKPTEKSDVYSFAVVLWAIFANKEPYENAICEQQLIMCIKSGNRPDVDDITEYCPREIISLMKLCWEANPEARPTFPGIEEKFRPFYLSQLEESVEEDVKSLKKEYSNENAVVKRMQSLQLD
# EXPERIMENT SUMMARY: RIPK1 HTRF Binding Assay
# RUN PARAMETERS: x marks IC50 class <20 nM; read-out: RIPK1 HTRF binding <20 nM

Here's what some known entries look like.
- MOLECULE: "COc1nc(C)c(-c2ccn3nc(N)nc3c2)cc1C(=O)NCc1ccccc1OCC(F)(F)F"
  IC50: "< 0.02 µM"
- MOLECULE: "Nc1nc2cc(-c3cncc(C(=O)NCc4c(F)cccc4OC4CCCC4)c3)ccn2n1"
  IC50: "< 0.02 µM"
- MOLECULE: "[2H]C([2H])([2H])[C@@H](NC(=O)c1cc(-c2ccn3nc(N)nc3c2)c(C)nc1C)c1cc(C(F)(F)F)ccc1F"
  IC50: "< 0.02 µM"
- MOLECULE: "COc1nc(C)c(-c2ccn3nc(N)nc3c2)cc1C(=O)NCc1cc(F)cc(F)c1OC1CCOC(C)C1 (centres unmarked)"
  IC50: "< 0.02 µM"
- MOLECULE: "COc1nc(C)c(-c2ccn3nc(N)nc3c2)cc1C(=O)NCc1cc(F)cc(F)c1OCC1CCCC1"
  IC50: "< 0.02 µM"
- MOLECULE: "Cc1ncc(-c2ccn3nc(N)nc3c2)cc1C(=O)NCc1ccccc1OC1CCC(C)C1 (centres unmarked)"
  IC50: "< 0.02 µM"

State recorded IC50 for all listed molecules.
1. COc1ncc(-c2ccn3nc(N)nc3c2)cc1C(=O)NCc1ccccc1-c1ccccc1
2. COc1ncc(-c2ccn3nc(N)nc3c2)cc1C(=O)NCc1ccccc1CN1CCOCC1

1. < 0.02 µM
2. < 0.02 µM

====

# Test system: MLKL phosphorylation in HT29-L23 human colorectal adenocarcinoma cells
# EXPERIMENT SUMMARY: MLKL Phosphorylation High-Content Assay
# Type: cell-based
# RUN PARAMETERS: Homo sapiens, x marks IC50 class 20-200 nM, read-out: pMLKL cell activity 20-200 nM
What IC50 was measured for each of the following?

State recorded IC50 for all listed molecules.
1. Cc1nc(C)c(-c2ccn3nc(N)nc3c2)cc1C(=O)NCc1cccc(OCC(F)(F)F)c1
2. COc1nc(C)c(-c2ccn3nc(N)nc3c2)cc1C(=O)NCc1cc(C(F)(F)F)ccc1F
3. Cc1nc(C)c(-c2ccn3nc(N)nc3c2)cc1C(=O)NCc1cccnc1OCC1CCC1
4. Cc1cnc(-c2ccn3nc(N)nc3c2)nc1C(=O)N[C@H](C)c1cc(C(F)(F)F)ccc1F
5. COc1ncc(-c2ccn3nc(N)nc3c2)cc1C(=O)N1CCCC(Cc2ccc(C)cc2)C1 (stereo not shown)
6. CC(CCNC(=O)c1cc(-c2ccn3nc(N)nc3c2)cnc1N(C)C)c1ccccc1 (stereo not shown)

["20 to 200 nM", "20 to 200 nM", "20 to 200 nM", "20 to 200 nM", "20 to 200 nM", "20 to 200 nM"]

State recorded IC50 for all listed molecules.
1. COc1ncc(-c2ccn3nc(N)nc3c2)cc1C(=O)NCc1ccccc1OCC1CCCC1
2. COc1ncc(-c2ccn3nc(N)nc3c2)cc1C(=O)N(C)Cc1cccc(OC(F)(F)F)c1

["20 to 200 nM", "20 to 200 nM"]

====

# Tested on: MLKL phosphorylation in HT29-L23 human colorectal adenocarcinoma cells
# EXPERIMENT SUMMARY: MLKL Phosphorylation High-Content Assay
# Type: cell-based
# RUN PARAMETERS: Homo sapiens, x marks IC50 class 20-200 nM, read-out: pMLKL cell activity 20-200 nM
What IC50 was measured for each of the following?

- CPD SMILES: "Cc1cnc(-c2ccn3nc(N)nc3c2)nc1C(=O)N[C@H](C)c1cc(OC(F)(F)F)ccc1F"
  OBSERVED MEASUREMENT: "0.02 to 0.2 µM"
- CPD SMILES: "COc1nc(C)c(-c2ccn3nc(N)nc3c2)cc1C(=O)NCc1ncccc1OCC1CC1"
  OBSERVED MEASUREMENT: "0.02 to 0.2 µM"
- CPD SMILES: "Nc1nc2cc(-c3cnc(N)c(C(=O)NCc4c(F)cccc4OCC4CC4)c3)ccn2n1"
  OBSERVED MEASUREMENT: "0.02 to 0.2 µM"
- CPD SMILES: "[2H]C([2H])([2H])[C@@H](NC(=O)c1cc(-c2ccn3nc(N)nc3c2)c(C)nc1C)c1cc(C(F)(F)F)ccc1F"
  OBSERVED MEASUREMENT: "0.02 to 0.2 µM"
- CPD SMILES: "COc1nc(C)c(-c2ccn3nc(N)nc3c2)cc1C(=O)NCc1cc(C(F)(F)F)cc(Cl)c1F"
  OBSERVED MEASUREMENT: "0.02 to 0.2 µM"

State recorded IC50 for all listed compounds.
1. COc1nc(C)c(-c2ccn3nc(N)nc3c2)cc1C(=O)NCc1cc(F)ccc1OCC1CCCC1
2. C[C@@H](NC(=O)c1cc(-c2ccn3nc(N)nc3c2)cnc1Cl)c1cc(OC(F)(F)F)ccc1F

["0.02 to 0.2 µM", "0.02 to 0.2 µM"]

====

# SYSTEM UNDER TEST: His-GST-TVMV-hRIPK1(1-324) (Homo sapiens)
# Construct: The coding region of human RIPK1(1-324) flanked by NdeI site at 5′ end; made in house; host or cells: Spodoptera frugiperda (Sf9) insect cells, baculovirus
# Sequence (Q13546 1-324): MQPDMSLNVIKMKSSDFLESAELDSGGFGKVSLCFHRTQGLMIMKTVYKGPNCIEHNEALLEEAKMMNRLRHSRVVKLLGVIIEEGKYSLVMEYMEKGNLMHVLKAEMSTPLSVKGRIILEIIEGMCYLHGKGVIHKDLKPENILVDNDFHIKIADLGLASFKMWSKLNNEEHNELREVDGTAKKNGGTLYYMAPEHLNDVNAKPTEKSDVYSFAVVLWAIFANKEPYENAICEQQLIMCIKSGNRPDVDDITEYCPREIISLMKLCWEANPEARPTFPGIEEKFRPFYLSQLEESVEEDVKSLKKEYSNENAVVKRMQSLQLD
# EXPERIMENT SUMMARY: RIPK1 HTRF Binding Assay
# RUN PARAMETERS: x marks IC50 class <20 nM; read-out: RIPK1 HTRF binding <20 nM
# Method: The plate was incubated at rt for 1 h. Cloning and Baculovirus Expression of RIPK1 Construct Baculovirus was generated for the construct using the Bac-to-Bac baculovirus expression system (Invitrogen) according to the manufacturer's protocol. Briefly, recombinant bacmid was isolated from transformed DH10Bac E. coli competent cells (Invitrogen) and used to transfect Spodoptera frugiperda (Sf9) insect cells (Invitrogen). […]
What IC50 was measured for each of the following?

- MOLECULE: "COc1nc(C)c(-c2ccn3nc(N)nc3c2)cc1C(=O)NCc1cc(F)ccc1OC1CCCC1 [Example 216]"
  SYSTEM UNDER TEST: "His-GST-TVMV-hRIPK1(1-324) (Homo sapiens)"
  IC50: "< 20 nM"
- MOLECULE: "COc1ncc(-c2ccn3nc(N)nc3c2)cc1C(=O)NCc1ccccc1OC(F)(F)F [Example 74]"
  SYSTEM UNDER TEST: "His-GST-TVMV-hRIPK1(1-324) (Homo sapiens)"
  IC50: "< 20 nM"
- MOLECULE: "Cc1ncc(-c2ccn3nc(N)nc3c2)cc1C(=O)NC(C)c1cc(C(F)(F)F)ccc1F (single isomer, unassigned) [Example 99-2]"
  SYSTEM UNDER TEST: "His-GST-TVMV-hRIPK1(1-324) (Homo sapiens)"
  IC50: "< 20 nM"
- MOLECULE: "[2H]C([2H])([2H])c1ncc(-c2ccn3nc(N)nc3c2)cc1C(=O)NCc1cc(OC(F)(F)F)ccc1F [Example 96]"
  SYSTEM UNDER TEST: "His-GST-TVMV-hRIPK1(1-324) (Homo sapiens)"
  IC50: "< 20 nM"
- MOLECULE: "Cc1ncc(-c2ccn3nc(N)nc3c2)cc1C(=O)NCc1ccccc1OCC1CCCCC1 [Example 230]"
  SYSTEM UNDER TEST: "His-GST-TVMV-hRIPK1(1-324) (Homo sapiens)"
  IC50: "< 20 nM"

State recorded IC50 for all listed molecules.
1. COc1nc(C)c(-c2ccn3nc(N)nc3c2)cc1C(=O)NCc1c(F)cccc1OCC(F)(F)F [Example 328]
2. COc1nc(C)c(-c2ccn3nc(N)nc3c2)cc1C(=O)NCc1cc(OC(F)(F)F)ccc1F [Example 201]

1: < 20 nM; 2: < 20 nM
